measured_target: T1, HLA-B*44:05 (human)
T1 construct: also called peptide-receptive MHC class I molecule
method: UV peptide exchange, anti-b2m ELISA

{"columns": ["binder", "peptide exchange yield"],
 "data": [
  ["SEQNIQRANLF", "50 to 75%"],
  ["TELEVKIRDW", "> 75%"],
  ["AETSYVKVLEY", "50 to 75%"],
  ["EEEVFSGMKL", "> 75%"],
  ["EDNLIHKF", "20 to 50%"],
  ["KEVDPTGHSF", "50 to 75%"],
  ["TEFELLHQV", "50 to 75%"],
  ["TEAVLNRY", "20 to 50%"],
  ["VEAATVSKW", "50 to 75%"],
  ["SEHSLEGQKF", "50 to 75%"],
  ["TEGDVLNYIF", "50 to 75%"],
  ["TELTEARVQVW", "50 to 75%"],
  ["GEARGDQVDW", "> 75%"],
  ["RLWPEPENW", "20 to 50%"]
]}
